Tested on: RPMI-8226 leukemia
Assay: NCI-60 one-dose screen, 48 h (100 = growth as untreated, 0 = no growth, -100 = all killed)
Conditions: 10 µM unless noted
Method: Growth inhibition of the RPMI-8226 human tumor cell line is measured as a screen for anti-cancer activity. Cells are grown in 96 well plates and exposed to the test compound for 48 hours. Compounds are tested at a single concentration, which is 10^-5 M for most compounds. The reported endpoint is percent growth (GI% or GIPRCNT), where numbers from 0 - 100% represent growth inhibition, and numbers from -100% - 0 represent cell death. For example, a value of 40 represents 60% growth inhibition. […]
The panel holds about 83,000 compounds, 20% with a hit somewhere; the sample as a whole holds those more often.
test-readout: growth (%)
Express it in %; write the number only.

Recorded results for 6 compounds are shown here.
compound: OCCCCCCNc1ncnc2cc(Cl)ccc12
growth (%): 83.6
--
compound: COc1ccc(-c2nc(/C=N/Nc3cc(C)nc4ccc(Br)cc34)c(C)o2)cc1
growth (%): -54.5
--
compound: O=[N+]([O-])c1ccc(Sc2ncccn2)c([N+](=O)[O-])c1
growth (%): -29.3
--
compound: CN(C)c1oc(C2OC2c2ccccc2)nc1C#N (stereo not given)
growth (%): 98.3
--
compound: COc1ccc(/C=N\NC(=O)CN2CCN(c3cc4c(cc3F)c(=O)c(C(=O)N/N=C/c3ccc(OC)c(OC)c3)cn4C3CC3)CC2)cc1OC
growth (%): 4.84
--
compound: Cc1cc(N/N=C/c2nc(-c3ccc(Br)cc3)oc2C)c2cc(Br)ccc2n1
growth (%): -9.38

In the following, a different compound is considered.
[ask] Fill in: growth of C=C1C(=O)O[C@@H]2[C@@H]3O[C@@](C)(CC/C=C(\C)CCC[C@@H]2C)[C@H](O)C[C@@H]13 is ___
[reply] 7.48

----------
test system: COLO 205 colon; experiment: NCI-60 one-dose screen, 48 h; details: 10 µM unless noted
Compounds without any hit were thinned out: in the full panel of roughly 83,000, 20% have a hit. The source made the active and inactive calls. The calls were made as follows: active = growth percent below 10; inactive = the rest.
Choose the fitting class; nothing outside active, inactive is accepted.

molecule: CN(C)c1oc(C2OC2c2ccccc2)nc1C#N (centres undefined)
tested-target: COLO 205 colon
cat: inactive

[ask] What outcome does the record of this test show for O=c1c2sc3ncccc3c2nnn1-c1ccccc1 ?
[reply] inactive

[ask] Another molecule to check: Cc1nc2ncccc2nc1Nc1ccc(S(=O)(=O)Nc2ccccn2)cc1
[reply] inactive

[ask] Another molecule to check: COc1ccc2c(c1)[nH]c(=O)c1c3cccc(F)c3cn21
[reply] active

----------
# growth per entry
tested on: COLO 205 colon; test: NCI-60 one-dose screen, 48 h (100 = growth as untreated, 0 = no growth, -100 = all killed); settings: 10 µM unless noted
About 83,000 compounds went through this panel and 20% of them were active in at least one assay; those are over-represented in the sample as a whole.
Express it in %; write the number only.

Recorded results for 2 compounds are shown here.
compound-structure-string: COc1cc(/C=C/C(=O)/C=C/c2cc(OC)c3c(c2)OCO3)cc2c1OCO2
value-reported: 96.5

compound-structure-string: COc1cc(C(=O)/C=C/c2ccc3nc(-c4cc(F)cc(F)c4)sc3c2)cc(OC)c1OC
value-reported: 115

[ask] Fill in: growth of COc1ccc(-c2nc(SCCC(C)C)nc(Nc3ccc(F)c(Cl)c3)c2C#N)cc1 is ___
[reply] 70.8

[ask] Another compound to check: COc1ccc(/C=C2\Oc3cc(OCCCN4CCCC4)ccc3C2=O)cc1
[reply] 93.5
